# test-target: T1, Extracellular domain of cyno PD1 (cPD1-ECD) (Macaca fascicularis (cynomolgus))
# T1 construct: Expressed with a hexahistidine tag or as Fc fusion; also called cynoPD1-ECD; cynoPD-1-ECD
# T1 chain: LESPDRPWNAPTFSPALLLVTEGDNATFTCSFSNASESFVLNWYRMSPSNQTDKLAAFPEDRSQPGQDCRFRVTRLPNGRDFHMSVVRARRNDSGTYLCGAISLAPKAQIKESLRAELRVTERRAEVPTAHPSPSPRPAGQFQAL
# assay-comment: SPR ProteOn, cynoPD1-ECD; RANGE low replicate
measured-endpoint: pKd
Kindly note that pKd refers to -log10 of the concentration in mol/L and answer with the value alone.

Note to self: pKd recorded for PD1B175 (antibody, V domains shown, Tested as IgG2sigma; also called PD1H163/PH9L3) VH: QVQLVQSGAEVKKPGSSVKVSCKASGGTFKSYVIHWVRQAPGQGLEWMGGIIPIFGTANYAQKFQGRVTITADESTSTAYMELSSLRSEDTAVYYCARGYVRATGMLDYWGQGTLVTVSS VL: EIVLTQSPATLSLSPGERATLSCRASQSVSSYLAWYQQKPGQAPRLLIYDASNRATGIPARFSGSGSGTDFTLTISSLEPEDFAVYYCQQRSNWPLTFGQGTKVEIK was 7.59

Short answer for PD1B164 (antibody, human IgG2, kappa, V domains shown, IgG2sigma/kappa; VH 42, VL 53; also called PD1H131/PD1L71) VH: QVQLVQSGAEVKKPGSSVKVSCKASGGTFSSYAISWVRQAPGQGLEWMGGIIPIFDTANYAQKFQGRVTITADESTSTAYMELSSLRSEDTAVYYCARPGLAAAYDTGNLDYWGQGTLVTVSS VL: EIVLTQSPATLSLSPGERATLSCRASQSVRSYLAWYQQKPGQAPRLLIYDASYRATGIPARFSGSGSGTDFTLTISSLEPEDFAVYYCQQRDYWPLTFGQGTKVEIKR : pKd was 8.97
